targetDesc: T1, 6×His-tagged recombinant PHB2/REA protein (human, UniProt Q99623 77-244)
T1 construct: Expressed in Escherichia coli BL21 star (DE3); also called His-PHB2/REA; 6×His-PHB2/REA; not shown: hexahistidine tag, thioredoxin (TrxA) and TEV protease cut site at the amino terminal (pTAT6 vector)
T1 sequence (Q99623 77-244): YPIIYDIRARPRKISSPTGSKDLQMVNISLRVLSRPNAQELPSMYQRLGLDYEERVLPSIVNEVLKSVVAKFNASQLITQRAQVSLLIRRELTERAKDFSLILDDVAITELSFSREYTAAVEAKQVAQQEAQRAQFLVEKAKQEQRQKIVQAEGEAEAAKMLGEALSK
assaySummary: Biacore 3000, 6×His-tagged recombinant PHB2/REA immobilized on a CM5 chip, peptide injected; Biacore; His-PHB2/REA on the chip, HA-tagged peptide injected
propertyLabel: pKd
Numbers only, as −log10 of the molar value.

Request: // lookup pKd for RRRRRRRRRRRQMLSDLTLQLRQR (ERAP1-peptide to which an HA tag was added; also called ERAP1-HA-peptide; HA tag-added peptide; not shown: HA tag) [HA-tagged ERAP1-peptide]
Result: 4.72
